Each entry below lists one item and its recorded activity change (mCherry) value.
Assay: blocks a specific stage of Vaccinia orthopoxvirus infection, primary screen, cell-based, single point (AID 1053133)
Conditions: Vaccinia-infected cells, mCherry/Venus stage reporter fluorescence, stronger effect = lower value, concentration not given here
The whole screen tested about 89,000 compounds, of which about 10 (0.01%) were called active. About 10% were inconclusive and are not listed. These entries were drawn from the full list.

These solved cases illustrate the format of a correct answer.
>  <smiles-code>
O=C(CC1CC1)Nc1ccc2c(c1)[C@@H]1C[C@@H](CC(=O)NC3CCCCC3)O[C@@H](CO)[C@@H]1O2

>  <activity change (mCherry)>
-3.33% (inactive)

$$$$
>  <smiles-code>
O=C(C[C@@H]1CC[C@@H]2[C@H](COC[C@H](O)CN2C(=O)Nc2cccc(Cl)c2)O1)NCCCN1CCOCC1

>  <activity change (mCherry)>
10% (inactive)

$$$$

Quick check: activity change (mCherry) of C[C@@H]1CN([C@H](C)CO)C(=O)c2cc(NC(=O)Nc3ccc(F)cc3)ccc2O[C@@H](C)CCCCO[C@@H]1CN(C)S(=O)(=O)c1cn(C)cn1 ?
41.6% (inactive)

Quick check: activity change (mCherry) of COc1ccc2c3c([nH]c2c1)[C@H](CO)N(C(=O)CN1CCOCC1)CC31CN(C(C)=O)C1 ?
42.6% (inactive)

Quick check: activity change (mCherry) of COc1ccccc1CNC(=O)C[C@H]1CC[C@@H](NC(=O)CN(C)C)[C@@H](CO)O1 ?
6.13% (inactive)

Quick check: activity change (mCherry) of O=C(C[C@H]1C=C[C@@H](NS(=O)(=O)c2ccc(F)cc2)[C@@H](CO)O1)NC1CCC1 ?
-4.64% (inactive)

Quick check: activity change (mCherry) of O=C(Nc1ccccc1F)N1CC(=O)N2[C@H](CO)[C@H](c3ccc(C#CC4CC4)cc3)[C@@H]2C1 ?
-2.67% (inactive)

Quick check: activity change (mCherry) of C[C@@H]1CN([C@@H](C)CO)C(=O)c2cc(NC(=O)Cc3ccccc3)ccc2O[C@@H](C)CCCCO[C@H]1CN(C)C(=O)Nc1cccc2ccccc12 ?
21.9% (inactive)

Quick check: activity change (mCherry) of CN1C(=O)c2cc(NC(=O)c3ccccc3)ccc2OC[C@H]2O[C@@H](CC(=O)O)CC[C@@H]21 ?
9.5% (inactive)

Quick check: activity change (mCherry) of C[C@@H]1CCCCO[C@H](CN(C)S(=O)(=O)c2cccs2)[C@H](C)CN([C@@H](C)CO)C(=O)c2cc(NC(=O)Nc3ccc4c(c3)OCO4)ccc2O1 ?
9.35% (inactive)

Quick check: activity change (mCherry) of C[C@H]1CN([C@@H](C)CO)C(=O)c2cc(/C=C/c3ccccc3)cnc2O[C@@H]1CN(C)C(=O)NC1CCCCC1 ?
-26.2% (inactive)

Quick check: activity change (mCherry) of COc1ccc(NC(=O)Nc2ccc3c(c2)C(=O)N([C@@H](C)CO)C[C@H](C)[C@H](CN(C)S(=O)(=O)c2ccccc2)OCCCC[C@@H](C)O3)cc1 ?
-0.413% (inactive)

Quick check: activity change (mCherry) of O=C(C[C@H]1CC[C@@H]2[C@H](COC[C@@H](O)CN2CC2CC2)O1)NCC1CC1 ?
11.7% (inactive)

Quick check: activity change (mCherry) of Cc1ccccc1S(=O)(=O)N[C@@H]1CC[C@H](CCn2cc(-c3ccc(F)cc3)nn2)O[C@@H]1CO ?
-28.1% (inactive)

Quick check: activity change (mCherry) of C[C@@H](NC(=O)C[C@H]1C[C@@H]2c3cc(NC(=O)Nc4ccccc4F)ccc3O[C@@H]2[C@H](CO)O1)c1ccccc1 ?
4.14% (inactive)

Quick check: activity change (mCherry) of C[C@H]1CN([C@@H](C)CO)C(=O)c2cc(C3=CCCC3)cnc2O[C@H]1CN(C)C(=O)Nc1ccc(F)cc1 ?
7.38% (inactive)

Quick check: activity change (mCherry) of CC(=O)Nc1ccc2c(c1)C(=O)N(C)[C@H]1CC[C@@H](CC(=O)NCC3CC3)O[C@H]1CO2 ?
7.92% (inactive)
